- Tgt: T1, PUF4 RNA-binding domain (Saccharomyces cerevisiae, UniProt P25339 537-888)
- T1 sequence: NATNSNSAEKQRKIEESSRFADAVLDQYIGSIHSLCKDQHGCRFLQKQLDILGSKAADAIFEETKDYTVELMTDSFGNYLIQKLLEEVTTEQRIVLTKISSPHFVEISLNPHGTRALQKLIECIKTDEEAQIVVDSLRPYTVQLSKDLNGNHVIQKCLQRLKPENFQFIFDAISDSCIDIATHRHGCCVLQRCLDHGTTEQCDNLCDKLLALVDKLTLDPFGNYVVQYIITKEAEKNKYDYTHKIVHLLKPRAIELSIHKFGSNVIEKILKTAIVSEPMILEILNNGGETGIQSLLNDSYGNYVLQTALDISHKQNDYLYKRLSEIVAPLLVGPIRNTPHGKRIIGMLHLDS
- Method Summary: Mg; RNA-MaP; 20 mM Na-HEPES pH 7.4, 30 mM KOAc, 0.75 mM MgCl2, 0.1% Tween-20, 5% glycerol, 0.1 mg/mL BSA, 2 mM DTT; 25 C; 0.0125-409.6 nM protein
- Condition Context: tags: N-His6-TEV cleaved; C-SNAP kept, Cy3B-labelled; label: tethered on chip by stalled RNA polymerase
Assay Endpoint: pKd
Interpret pKd as the negative base-10 log of the concentration measured in mol/L.

pKd in this record for Id_ii_S2_P5E.2_K5.1_C5.2_[C-2T]_H5.1_A5.1_F5.1_T5.2_[T11A] (ssRNA) RNA: UUUGAUUAAUAUGAUAUCGUUCUUUCUUUUGUAUUAUUAAAUUCUUUCUCGAUAUCAUAUUAAUCUUU : 8.22

Per the record, ACAAACACUAUAUAUUAUGACAAAC (ssRNA) [Id_ii_S3_P4E.3_K4.2_C4.2_[C-2A]_[T-1C]_H4.2_A4.1_F4.1_T4.2_[G10T]_[T11G]] has pKd of 7.78

According to the records, this binder Ic_S2_P5E.1_K5.1_C5.1_H5.1_A5.1_[T5C]_[T6A]_[A7C]_F5.1_[T8C]_[T9A]_[A10T]_T5.1 (ssRNA) RNA: UUUGAUUAAUAUGAUAUCGUUCUUUCUUGUACACCAUUUCUUUCUCGAUAUCAUAUUAAUCUUU displays pKd of 7.83

Summary for this binder, UCUCUUUGUGUAAUAUCUCUU (ssRNA) [Ib_S1_P4E.1_K4.1_C4.1_H4.1_[A4G]_A4.1_[T7A]_F4.1_T4.1] : pKd is 7.98

Field pKd (entry Ic_S2_P4E.1_K4.1_C4.1_H4.1_A4.1_F4.1_[T8G]_[A9T]_T4.1 (ssRNA) RNA: UUUGAUUAAUAUGAUAUCGUUCUUUCUUGUAUAUGUUUCUUUCUCGAUAUCAUAUUAAUCUUU ) reads 8.22

The value of pKd measured for the binder UCUCUUCGUAUAUUAUUAAAUCUCUU (ssRNA) [Id_ii_S1_P5E.3_K5.2_C5.2_[T-1G]_H5.2_A5.1_F5.1_T5.2_[T11A]] turned out to be 7.41

Item: Ic_S4_P4E.1_K4.1_C4.1_H4.1_A4.1_[T5C]_[A6C]_[T7A]_F4.1_[A9T]_T4.1 (ssRNA) RNA: UUUGACAACUGAUCGUUCUUUCUUGUACCAUUUUCUUUCUCGAUCAGUUGUCUUU | pKd: 8.34

Entry under test: UCUCUUUGUGUAUUCUCUCUU (ssRNA) [Ib_S1_P4E.1_K4.1_C4.1_H4.1_[A4G]_A4.1_F4.1_[A9C]_T4.1] . Its pKd was 7.39

Lab book: pKd of Id_ii_S4_P3E.4_K3.3_C3.2_[C-2T]_H3.3_A3.1_F3.1_T3.2_[T9A] (ssRNA) RNA: UUUGACAACUGAUCGUUCUUUCUUUACACUAUAAAUUCUUUCUCGAUCAGUUGUCUUU noted as 5.64
